Tested on: SF-295
Test: NCI tumour cell line growth inhibition, 48 h
Active and inactive are the calls of the source. No stated cut-off is given here; in the data, active = GI50 up to about 1.1 µM and inactive = higher.
readout label: GI50

compound="CC(C)C(Sc1nc(-c2ccccc2)c(-c2ccccc2)[nH]1)C(=O)N/N=C/c1ccc(Cl)cc1 (stereo unspecified)" readout_label=GI50 experimental_result="22.8 µM (inactive)"
compound="CC(=O)N(CCc1ccccc1)C(C#N)c1ccccc1 (stereo unspecified)" readout_label=GI50 experimental_result="> 100 µM (inactive)"
compound="COC1(OC)C2C=CC1C([C@](C)(N)CO)C2 (stereo partly specified)" readout_label=GI50 experimental_result="> 100 µM (inactive)"
compound="COc1ccc2oc(S(=O)(=O)N3CC(CCl)c4ccc(N)cc43)cc2c1 (stereo unspecified)" readout_label=GI50 experimental_result="0.042 µM (active)"
compound=C[n+]1c(/C=C/c2ccc(/C=N/NC(=O)c3ccc(C(=O)N/N=C/c4ccc(/C=C/c5cn6ccccc6[n+]5C)cc4)cc3)cc2)cn2ccccc21 readout_label=GI50 experimental_result="> 100 µM (inactive)"
compound=c1cc(NNc2cccc(-c3nnn[nH]3)c2)cc(-c2nnn[nH]2)c1 readout_label=GI50 experimental_result="> 100 µM (inactive)"
compound=COc1cccc(/C=N/n2c(Cc3ccc(Cl)cc3)n[nH]c2=O)c1 readout_label=GI50 experimental_result="17.1 µM (inactive)"
compound=C=C(CCC/C(C)=C/C=C/[C@H](C)CCCc1ccoc1)C[C@@H]1OC(=O)[C@H](C)[C@@H]1O readout_label=GI50 experimental_result="8.83 µM (inactive)"
compound=OC(Cn1cncn1)(Cn1cncn1)c1ccc(Cl)cc1Cl readout_label=GI50 experimental_result="> 100 µM (inactive)"
compound="OCC1OC(NC(=S)NCSCCC(F)(F)C(F)(F)C(F)(F)C(F)(F)C(F)(F)C(F)(F)F)C(O)C(O)C1O (stereo unspecified)" readout_label=GI50 experimental_result="23.1 µM (inactive)"
compound=CC(=O)COC(=O)CC(C)=O readout_label=GI50 experimental_result="> 100 µM (inactive)"
